molecular target: NDM-1 (Klebsiella pneumoniae); experiment: biochemical; assay type: biochemical; settings: CCF2-FA fluorescence assay, 2 hours at 25° C.
result-type: pIC50
Kindly note that pIC50 refers to -log10 of the concentration in mol/L and answer with the value alone.

Request: Determine its reported pIC50: NC[C@@H](O)CNS(=O)(=O)c1ccc(N2CCC(C(N)CO)CC2)c(-c2nn[nH]n2)c1S(N)(=O)=O (single isomer, unassigned) [Example 180]
Response: 8.24

Request: Determine its reported pIC50: NS(=O)(=O)c1c(S(=O)(=O)N[C@@H]2CCNC2)ccc(NCC2CCNCC2)c1-c1nn[nH]n1 [Example 183]
Response: 8.20

Request: Determine its reported pIC50: NCCNS(=O)(=O)c1ccc(N2CCN(CCO)CC2)c(-c2nnn[nH]2)c1S(N)(=O)=O [Example 48]
Response: 8.82

Request: Determine its reported pIC50: NC[C@H](N)CNS(=O)(=O)c1ccc(N2CCC(CO)CC2)c(-c2nnn[nH]2)c1S(N)(=O)=O [Example 44]
Response: 9.44

Request: Determine its reported pIC50: CN1CCOC2(C1)CN(c1ccc(S(=O)(=O)N[C@@H]3CCNC3)c(S(N)(=O)=O)c1-c1nnn[nH]1)C2 [Example 115]
Response: 8.21

Request: Determine its reported pIC50: NC1CCCCN(c2ccc(S(=O)(=O)C3CNC3)c(S(N)(=O)=O)c2-c2nnn[nH]2)C1 (centres unmarked) [Example 33]
Response: 6.96

Request: Determine its reported pIC50: NCC=C1CCN(c2ccc(S(=O)(=O)NC[C@H](O)CN)c(S(N)(=O)=O)c2-c2nn[nH]n2)CC1 [Example 204]
Response: 9.01

Request: Determine its reported pIC50: NS(=O)(=O)c1c(S(=O)(=O)N[C@@H]2CCNC2)ccc(N2CC(N3CCOCC3)C2)c1-c1nnn[nH]1 [Example 111]
Response: 8.34

Request: Determine its reported pIC50: NC[C@@H](O)CNS(=O)(=O)c1ccc(N2CCCN(CCO)CC2)c(-c2nn[nH]n2)c1S(N)(=O)=O [Example 23]
Response: 7.71

Request: Determine its reported pIC50: N[C@@H]1CCCN(c2ccc(S(=O)(=O)N[C@@H]3CCNC3)c(S(N)(=O)=O)c2-c2nn[nH]n2)C1=O [Example 155]
Response: 8.29

Request: Determine its reported pIC50: CS(=O)(=O)CCN1CCN(c2ccc(S(=O)(=O)NC[C@H](O)CN)c(S(N)(=O)=O)c2-c2nn[nH]n2)CC1 [Example 117]
Response: 9.03

Request: Determine its reported pIC50: NC[C@@H](O)CNS(=O)(=O)c1ccc(N2CC[C@H](N)[C@H](F)C2)c(-c2nn[nH]n2)c1S(N)(=O)=O [Example 195]
Response: 8.82

Request: Determine its reported pIC50: NC[C@@H](O)CNS(=O)(=O)c1ccc(N2CCC(n3ccnc3)CC2)c(-c2nnn[nH]2)c1S(N)(=O)=O [Example 174]
Response: 9.16

Request: Determine its reported pIC50: N[C@@H]1CCCN(c2ccc(S(=O)(=O)N[C@@H]3CCNC3)c(S(N)(=O)=O)c2-c2nnn[nH]2)C1 [Example 86]
Response: 8.86

###

Molecular target: NDM-1 (Klebsiella pneumoniae, UniProt C7C422)
Sequence (C7C422 whole entry, looked up, species assumed): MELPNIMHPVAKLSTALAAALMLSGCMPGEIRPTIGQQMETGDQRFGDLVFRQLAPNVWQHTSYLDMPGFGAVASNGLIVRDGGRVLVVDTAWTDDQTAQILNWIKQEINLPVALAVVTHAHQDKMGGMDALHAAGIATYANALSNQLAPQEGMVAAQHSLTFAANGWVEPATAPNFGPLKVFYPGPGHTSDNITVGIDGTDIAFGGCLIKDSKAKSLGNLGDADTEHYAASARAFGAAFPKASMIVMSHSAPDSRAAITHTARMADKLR
Experiment: biochemical
Type: biochemical
Details: CCF2-FA fluorescence assay, 2 hours at 25° C.
Procedure: The Class B enzyme activities were measured in the presence of the test inhibitor in a fluorescence assay against a commercially available substrate consisting of a cephalosporin core linking 7-hydroxycoumarin to fluorescein (CCF2-FA). […] Fluorescence at 460 nm following excitation at 405 nm was measured. The IC50 value was determined from semi-logarithmic plots of enzyme inhibition versus inhibitor concentration, with a curve generated using a 4-parameter fit.
pIC50: −log10 of the molar value.
Give Fulfilled when the value for pIC50 is at least 8. Give Not fulfilled when it is less.

Request: Assess whether reported pIC50 for CC(N)C1CCN(c2ccc(S(=O)(=O)NC[C@H](O)CN)c(S(N)(=O)=O)c2-c2nnn[nH]2)CC1 (stereo partly shown) sits at 8 or higher.
Response: Fulfilled

Request: Assess whether reported pIC50 for `NCC1CCN(c2ccc(S(=O)(=O)NC[C@@H](O)CN)c(S(N)(=O)=O)c2-c2nnn[nH]2)CC1` sits at 8 or higher.
Response: Fulfilled

Request: Assess whether reported pIC50 for `CN(C)CC1(O)CCN(c2ccc(S(=O)(=O)N[C@@H]3CCNC3)c(S(N)(=O)=O)c2-c2nnn[nH]2)CC1` sits at 8 or higher.
Response: Not fulfilled

Request: Assess whether reported pIC50 for `N[C@H]1CCCN(c2ccc(S(=O)(=O)N[C@@H]3CCNC3)c(S(N)(=O)=O)c2-c2nn[nH]n2)C1=O` sits at 8 or higher.
Response: Fulfilled

Request: Assess whether reported pIC50 for NOC1CCCN(c2ccc(S(=O)(=O)N[C@@H]3CCNC3)c(S(N)(=O)=O)c2-c2nn[nH]n2)C1=O (stereo partly shown) sits at 8 or higher.
Response: Fulfilled

Request: Assess whether reported pIC50 for `NC[C@@H](O)CNS(=O)(=O)c1ccc(N2CC[C@@H](N)C2)c(-c2nn[nH]n2)c1S(N)(=O)=O` sits at 8 or higher.
Response: Not fulfilled

Request: Assess whether reported pIC50 for NC[C@@H](O)CNS(=O)(=O)c1ccc(N2CCN3CCOCC3C2)c(-c2nn[nH]n2)c1S(N)(=O)=O (stereo partly shown) [Example 129, 2,2,2-trifluoroacetate] sits at 8 or higher.
Response: Fulfilled

###

Kindly supply the reported MIC values for the records listed here.
tested on: MB9862 (efflux- MB5890 trans pFlp-Vim1); experiment: microbe, parasite or virus in culture; assay type: cell-based, Pseudomonas aeruginosa; settings: MB9862, OprD+, efflux−, MB5890 trans pFlp-Vim1
Reply with just the number (in µg/mL).

Request: Determine its reported MIC: CCN1CCN(C(=O)N[C@@H](C(=O)N[C@@H]2C(=O)N3[C@@H]2SC(C)(C)[C@@H]3C(=O)O)c2ccccc2)C(=O)C1=O [Pipercillin, piperacillin]
Response: 128

Request: Determine its reported MIC: C[C@@H](O)[C@H]1C(=O)N2C(C(=O)O)=C(S[C@@H]3CN[C@H](C(=O)N(C)C)C3)[C@H](C)[C@H]12 [Meropenem, meropenem]
Response: 64

Request: Determine its reported MIC: C[C@@H](O)[C@H]1C(=O)N2C(C(=O)O)=C(SCCN=CN)C[C@H]12 [Imipenem, imipenem]
Response: 64

###

system: Serratia marcescens expressing IMP-1 (CL5741); type: cell-based; conditions: with imipenem 1 μg/ml; 95% inhibition of bacterial growth
result-type: CL5741 S. marcescens MITC95 IMP (µM)
Reply with just the number (in µM).

Request: Determine its reported CL5741 S. marcescens MITC95 IMP: CS(=O)(=O)CCN1CCN(c2ccc(S(=O)(=O)NC[C@H](O)CN)c(S(N)(=O)=O)c2-c2nn[nH]n2)CC1 [Example 117]
Response: 0.78

Request: Determine its reported CL5741 S. marcescens MITC95 IMP: NCCOC1CCN(c2ccc(S(=O)(=O)NC[C@H](O)CN)c(S(N)(=O)=O)c2-c2nn[nH]n2)CC1 [Example 209]
Response: 1.56

Request: Determine its reported CL5741 S. marcescens MITC95 IMP: NC[C@@H](O)CNS(=O)(=O)c1ccc(N2CCC(CO)CC2)c(-c2nnn[nH]2)c1S(N)(=O)=O [Example 42]
Response: 3.13

Request: Determine its reported CL5741 S. marcescens MITC95 IMP: NCCNS(=O)(=O)c1ccc(N2CCC(CO)CC2)c(-c2nnn[nH]2)c1S(N)(=O)=O [Example 43]
Response: 1.56

Request: Determine its reported CL5741 S. marcescens MITC95 IMP: C[C@H](CN)NS(=O)(=O)c1ccc(N2CCC(CCN)CC2)c(-c2nn[nH]n2)c1S(N)(=O)=O [Example 185]
Response: 1.56

Request: Determine its reported CL5741 S. marcescens MITC95 IMP: NC[C@H](N)CNS(=O)(=O)c1ccc(N2CCC(c3c[nH]cn3)CC2)c(-c2nn[nH]n2)c1S(N)(=O)=O [Example 168]
Response: 0.78

Request: Determine its reported CL5741 S. marcescens MITC95 IMP: N[C@@H]1CCCN(c2ccc(S(=O)(=O)N[C@@H]3CCNC3)c(S(N)(=O)=O)c2-c2nnn[nH]2)C1 [Example 86]
Response: 1.56

###

Biological target: VIM-1 (Pseudomonas aeruginosa (strain ATCC 15692 / DSM 22644 / CIP 104116 / JCM 14847 / LMG 12228 / 1C / PRS 101 / PAO1), UniProt A0A0F7KYQ8)
Test: biochemical
Settings: CCF2-FA fluorescence assay, 2 hours at 25° C.; read-out: VIM1 IC50
Description: The Class B enzyme activities were measured in the presence of the test inhibitor in a fluorescence assay against a commercially available substrate consisting of a cephalosporin core linking 7-hydroxycoumarin to fluorescein (CCF2-FA). […] Fluorescence at 460 nm following excitation at 405 nm was measured. The IC50 value was determined from semi-logarithmic plots of enzyme inhibition versus inhibitor concentration, with a curve generated using a 4-parameter fit.
Structures can show the parent of a compound that is named as a salt.
Kindly supply the reported IC50 values for the records listed here.
Reply with just the number (in nM).

Request: Determine its reported IC50: `COC1(CN(C)C)CN(c2ccc(S(=O)(=O)N[C@@H]3CCNC3)c(S(N)(=O)=O)c2-c2nnn[nH]2)C1`
Response: 6.97

Request: Determine its reported IC50: NS(=O)(=O)c1c(S(=O)(=O)N[C@@H]2CCNC2)ccc(N2CCOC(CO)C2)c1-c1nnn[nH]1 (stereo partly shown)
Response: 0.42

Request: Determine its reported IC50: `NCCC1CCN(c2ccc(S(=O)(=O)N[C@@H]3CCNC3)c(S(N)(=O)=O)c2-c2nn[nH]n2)CC1`
Response: 0.08

Request: Determine its reported IC50: `NS(=O)(=O)c1c(S(=O)(=O)N[C@@H]2CCNC2)ccc(N2CCC(O)CC2)c1-c1nnn[nH]1`
Response: 0.16

Request: Determine its reported IC50: `N[C@@H]1CCCN(c2ccc(S(=O)(=O)N[C@@H]3CCNC3)c(S(N)(=O)=O)c2-c2nn[nH]n2)C1=O`
Response: 2.14

Request: Determine its reported IC50: `NC[C@@H](O)CNS(=O)(=O)c1ccc(N2CCCN(CCO)CC2)c(-c2nn[nH]n2)c1S(N)(=O)=O`
Response: 1.48

Request: Determine its reported IC50: `NC[C@@H](O)CNS(=O)(=O)c1ccc(N[C@H]2C[C@H](N)C2)c(-c2nnn[nH]2)c1S(N)(=O)=O`
Response: 67.5

Request: Determine its reported IC50: NC[C@@H](O)CNS(=O)(=O)c1ccc(N2CCNC(CO)C2)c(-c2nn[nH]n2)c1S(N)(=O)=O (stereo partly shown)
Response: 3.34

Request: Determine its reported IC50: `NCC1CCN(c2ccc(S(=O)(=O)N[C@H](CN)CO)c(S(N)(=O)=O)c2-c2nn[nH]n2)CC1`
Response: 2.85

Request: Determine its reported IC50: `NCC1=CCN(c2ccc(S(=O)(=O)NC[C@H](O)CN)c(S(N)(=O)=O)c2-c2nn[nH]n2)C1.O=C(O)C(F)(F)F.O=C(O)C(F)(F)F`
Response: 5.64

Request: Determine its reported IC50: NCCC1CCCN(c2ccc(S(=O)(=O)NC[C@H](O)CN)c(S(N)(=O)=O)c2-c2nn[nH]n2)CC1 (stereo partly shown) [Example 140, trifluoroacetate]
Response: 0.1

Request: Determine its reported IC50: `NCCC1CCN(c2ccc(S(=O)(=O)N[C@H](CN)CO)c(S(N)(=O)=O)c2-c2nn[nH]n2)CC1`
Response: 0.13

Request: Determine its reported IC50: `CC1(C)CN(c2ccc(S(=O)(=O)NC[C@H](O)CN)c(S(N)(=O)=O)c2-c2nn[nH]n2)CCN1CCO`
Response: 13.7

Request: Determine its reported IC50: `COC1(CO)CCN(c2ccc(S(=O)(=O)N[C@H](C)CN)c(S(N)(=O)=O)c2-c2nn[nH]n2)CC1`
Response: 0.65

Request: Determine its reported IC50: NC[C@@H](O)CNS(=O)(=O)c1ccc(N2CC[C@@H](N)[C@@H](F)C2)c(-c2nn[nH]n2)c1S(N)(=O)=O [Example 207]
Response: 0.86

Request: Determine its reported IC50: `NCCS(=O)(=O)c1ccc(N2CCOCC2)c(-c2nnn[nH]2)c1S(N)(=O)=O`
Response: 2.51

Request: Determine its reported IC50: `NCC1CCN(c2ccc(S(=O)(=O)NC[C@H](O)CN)c(S(N)(=O)=O)c2-c2nnn[nH]2)CC1`
Response: 0.18

Request: Determine its reported IC50: `NC[C@@H](O)CNS(=O)(=O)c1ccc(N2CCN(CCCO)CC2)c(-c2nnn[nH]2)c1S(N)(=O)=O`
Response: 5.87

Request: Determine its reported IC50: NS(=O)(=O)c1c(S(=O)(=O)N[C@@H]2CCNC2)ccc(N2CCCC(O)C2=O)c1-c1nn[nH]n1 (stereo partly shown)
Response: 0.35

Request: Determine its reported IC50: `C[C@H](CN)NS(=O)(=O)c1ccc(N2CCC(CN)CC2)c(-c2nnn[nH]2)c1S(N)(=O)=O`
Response: 0.1

Request: Determine its reported IC50: `CC1(CN)CCN(c2ccc(S(=O)(=O)NC[C@H](O)CN)c(S(N)(=O)=O)c2-c2nn[nH]n2)CC1`
Response: 0.71

Request: Determine its reported IC50: `CC(=O)N[C@@H]1CCN(c2ccc(S(=O)(=O)N[C@@H]3CCNC3)c(S(N)(=O)=O)c2-c2nnn[nH]2)C1`
Response: 1.42

Request: Determine its reported IC50: `NS(=O)(=O)c1c(S(=O)(=O)N[C@@H]2CCNC2)ccc(N2CCC(F)(CO)CC2)c1-c1nnn[nH]1`
Response: 0.47

Request: Determine its reported IC50: `NCC(CN)NS(=O)(=O)c1ccc(N2CCC(CO)CC2)c(-c2nnn[nH]2)c1S(N)(=O)=O`
Response: 0.23

Request: Determine its reported IC50: `NCCNS(=O)(=O)c1ccc(N2CCN(CCO)CC2)c(-c2nnn[nH]2)c1S(N)(=O)=O`
Response: 7.23

Request: Determine its reported IC50: `NC[C@@H](O)CNS(=O)(=O)c1ccc(N2CCN(CCO)CC2)c(-c2nnn[nH]2)c1S(N)(=O)=O`
Response: 5.02

Request: Determine its reported IC50: `NCCC(=O)N1CCN(c2ccc(S(=O)(=O)NC[C@H](O)CN)c(S(N)(=O)=O)c2-c2nn[nH]n2)CC1`
Response: 0.46

Request: Determine its reported IC50: `NS(=O)(=O)c1c(S(=O)(=O)C2CNC2)ccc(N2CCC3(CCNCC3)CC2)c1-c1nnn[nH]1`
Response: 2.01
